Here, each record is paired with measured inhibition data.
Target: Glucose transporter (Leishmania mexicana)
Assay: ST_JUDE_LEISH: Cytotoxicity at 2uM final concentration against transgenic Leishmania Mexicana promastigotes LmGT2 that are glucose transport deficient and complemented with the L. Mexicana glucose transporter 2. Activity is measured by DNA content using SYBR green in vitro
Assay type: functional
Expressed in %, but write only the number.

Solved cases (6 shown):
CC(C)c1cccc(C(NC(=O)[C@H]2Cc3ccccc3CN2C(=O)c2cccc(N3CCOCC3)c2)C2CCCC2)c1 (some centres undefined) : 0.64
CN1CCC(Oc2ccc(CN3CC[C@H](NC(=O)c4ccc(F)c(F)c4)C3)c3ccccc23)C1 (some centres undefined) : 2.7
CC(=O)c1cccc2cc(C(=O)NC3CCC(CCN4CCc5ccc(C#N)cc5C4)CC3)[nH]c12 (centres undefined) : -0.27
CCN(CC)CCN(Cc1ccc(-c2ccc(C#N)cc2)cc1)C(=O)Cn1c(CCc2cccc(F)c2F)nc(=O)c2ccccc21 : 3
Cc1ccc2nc(C)cc(NC(=O)Nc3ccc(N(C)C)cc3)c2c1 : 7.68
Cc1cccc(C(=O)NCCCN2CCC(NC(=O)/C=C/c3ccc(Cl)c(Cl)c3)CC2)c1 : 2.02

Which inhibition is reported with Glucose transporter (Leishmania mexicana) for this entry: `COc1cc2ncnc(Nc3ccc(OCc4ccccc4)c(I)c3)c2cc1OC` ?
1.33

Notebook entry, Glucose transporter (Leishmania mexicana) assay: inhibition of `O=c1cc(NCCCNCc2cc(Cl)cc(Cl)c2OCc2ccc(Cl)cc2)[nH]c2ccccc12` = ?
3.19

----------
Molecular target: Solute carrier family 2, facilitated glucose transporter member 1 (Homo sapiens)
Test: ST_JUDE_LEISH: Cytotoxicity at 2uM final concentration against transgenic Leishmania Mexicana promastigotes LmGLUT1 that are glucose transport deficient and complemented with the human glucose transporter GLUT1. Activity is measured by DNA content using SYBR green in vitro
Format: functional
# inhibition listing for each entry below
Please give a number only; it is taken to be in %.

Here's what some known entries look like.
COc1ccc2[nH]ccc(=NN=Cc3ccccc3)c2c1 : 13.5
CO/C(=C\C=C\c1cc2cc(Cl)c(Cl)cc2[nH]1)C(=O)NCCCN1CCN(c2cccc(O)c2)CC1 : 10.4
Cc1cc(Nc2ccncc2)n2nc(C)c(-c3ccc(Cl)cc3)c2n1 : 11.6
CCCCCCOc1ccc(/C(N)=N\Cc2ccccc2)c2c1CCCC2 : 2.62
Cc1cc2nc(-c3cc(-c4cccc(NS(C)(=O)=O)c4)cnc3N)[nH]c2cc1C : 1.13
O=C(NCc1cccc(F)c1)Nc1ccc(-c2ccc(-c3nc4cc(C(F)(F)F)ccc4[nH]3)cc2)cc1 : 0.8

Data request, read-out inhibition, for `CCCCNCCOc1ccc(-c2nc(-c3ccccc3)c(-c3ccccc3)[nH]2)cc1`
1.09

Look up inhibition: `NC(=O)c1cccc(C(=O)Nc2cccc(-c3ccc(-c4nc5ccccc5[nH]4)s3)c2)c1`
1.49

Reported inhibition for `CCCCN(C(=O)c1ccccc1C)c1nnc(-c2ccccc2C)s1` : what is it?
2.08

Form field: reported inhibition of `COC(=O)[C@@H](NC(=O)[C@@H](Nc1ccc(C#N)c2ccccc12)C(C)(C)C)c1ccc(O)cc1`
2.65

Which inhibition value is on record for `CC(C)C[C@H](NC(=O)c1cccc(F)c1)C(=O)N[C@H](/C=N/NC(=O)c1ccccc1)CCc1ccccc1` ?
-1.39

# inhibition lookup, item C=C[C@H]1CN(CCCCCCC)CC[C@H]1CC(O)Cc1ccnc2cc(O)c(OC)cc12 (stereo partly drawn)
-1.66

----------
Each item that follows carries a reported inhibition.
Biological target: Hexose transporter 1 (Plasmodium falciparum) (UniProt O97467)
Test: ST_JUDE_LEISH: Cytotoxicity at 2uM final concentration against transgenic Leishmania Mexicana promastigotes LmPfHT that are glucose transport deficient and complemented with the Plasmodium falciparum hexose transporter. Activity is measured by DNA content using SYBR green in vitro
Assay type: functional
Report the figure in % without appending any unit label.

COc1ccc2[nH]c(C)cc(=NN=Cc3ccc(Cl)cc3)c2c1 : 6.41
NCCNc1ccc([N+](=O)[O-])cc1C(=O)Nc1cccc(Cl)c1 : 4.41
CC(C)NC(C)(C)CN(Cc1ccc(-c2ccc(C(F)(F)F)cc2)cc1)C(=O)Cn1c(CCc2cccc(F)c2F)nc(=O)c2ccccc21 : -0.61
CC1(C)NC(N)=NC(=N)N1OCCCOc1ccc([N+](=O)[O-])cc1 : 0.61

Bench note: what inhibition did `Cc1cc(N2CCCC2)nc(Nc2ccc(NC(=O)c3ccccc3C)cc2)n1` show?
6.45

Would you mind telling me what inhibition value was observed for Clc1ccc(CNc2nc(NCCc3c[nH]cn3)nc(N3CCCC4CCCCC43)n2)cc1 (centres undefined) ?
4.86

Please give the measured inhibition for this compound: `Cc1ccc(CNC(=O)c2cc3c(=O)n4ccccc4nc3n(CCCN3CCOCC3)c2=N)cc1`
6.83

// query inhibition value for entry `COc1ccc(O)c(C(=O)c2cc(C#N)c(=O)n(-c3ccc(Oc4ccccc4)cc3)c2)c1`
8.65

// lookup inhibition for COC(=O)c1ccc(CCCNCC(O)c2cccc(C(F)(F)F)c2)cc1 (centres undefined)
3.05

----------
Target: Glucose transporter (Leishmania mexicana) (UniProt O61059)
Assay: ST_JUDE_LEISH: Cytotoxicity at 2uM final concentration against transgenic Leishmania Mexicana promastigotes LmGT2 that are glucose transport deficient and complemented with the L. Mexicana glucose transporter 2. Activity is measured by DNA content using SYBR green in vitro
Assay type: functional
Listed here: items and their measured inhibition.
Answer in %, number only, no unit symbol.

Consider the reported inhibition for these compounds:
COc1ccc(NC(=O)Nc2ccc(-c3ccccc3)cc2)cc1Cn1nc(Cl)c(N2CCCNCC2)cc1=O : 0.02
COc1ccc2nccc([C@@H](O)CN3CCC(NCCOc4cccc(F)c4F)CC3)c2c1 : -0.41
CC(C)NCc1ccc(-c2cccc(-c3nc4cc(F)ccc4[nH]3)c2)cc1 : -0.69

I would be grateful if you could share the reported inhibition for `Cc1nnsc1C(=O)Nc1cccc(-c2ccc(-c3nc4ccccc4[nH]3)s2)c1` .
-0.11

What does the record list as inhibition for `COc1ccc2ncc(F)c(CCN3C[C@H](CNCc4cc(F)c5c(c4)NC(=O)CO5)[C@H](O)C3)c2n1` ?
0.92

----------
Target: Solute carrier family 2, facilitated glucose transporter member 1 (Homo sapiens)
Experiment: ST_JUDE_LEISH: Cytotoxicity at 2uM final concentration against transgenic Leishmania Mexicana promastigotes LmGLUT1 that are glucose transport deficient and complemented with the human glucose transporter GLUT1. Activity is measured by DNA content using SYBR green in vitro
Type: functional
Parameter inhibition: see the listing below.

O=C(NCCCCN1CCC(c2ccc3c(c2OCCO)CCCC3)CC1)c1sc(-c2ccc(C(F)(F)F)cc2)nc1CO : 3.31%
CCNc1cc(C(=O)N[C@@H](Cc2ccccc2)[C@H](O)CN[C@H]2CCc3ccccc32)cc(N2CCCC2=O)c1 : 1.96%
COc1ccc(OCCCN2CCN(CC(c3ccc(F)cc3)N3CCN(C(C)C)CC3)CC2)c2ccccc12 (configuration not stated) : 5.57%

inhibition for `CCN(CCN(C)C)Cc1ccc(-c2ccc(NS(=O)(=O)c3cccc4cccnc34)cc2)cc1` ?
14%

What inhibition value was documented for this compound, CN(C)c1ccc(-c2csc(C(=O)NCC3CCN(CC4CCCCC4)C3)c2)cc1 (configuration not stated) ?
2.79%

Find the recorded inhibition belonging to `CC(=O)c1cccc(NC(=O)N2CCCN(CCCCCNC(=O)/C=C/c3ccc(Cl)c(Cl)c3)CC2)c1` and report it.
-1.7%

Which inhibition is reported for this compound? `COc1ccc(CNCc2ccc(-c3ccc(-c4nc5cc(F)ccc5[nH]4)cc3)cc2)cc1`
5.49%

----------
Quick reference: inhibition of the listed items.
Biological target: Solute carrier family 2, facilitated glucose transporter member 1 (Homo sapiens)
Assay: ST_JUDE_LEISH: Cytotoxicity at 2uM final concentration against transgenic Leishmania Mexicana promastigotes LmGLUT1 that are glucose transport deficient and complemented with the human glucose transporter GLUT1. Activity is measured by DNA content using SYBR green in vitro
Format: functional
Number only, in %; omit the unit.

CN(C)CCOc1cc(NC(=O)Nc2ccc(Oc3ccccc3)cc2)ccc1I : 1.79

Please look up its inhibition: `CCOc1ccc(N(CC)S(=O)(=O)c2cc(Br)cc3c2N(C(=O)C2CC2)CC3)cc1`
2.96

Data request, read-out inhibition, for CC(C)c1ccc(NC(=O)NC2CCN(CCCCCN(C)C(=O)/C=C/c3ccc(Cl)c(Cl)c3)C2)cc1 (stereo not drawn)
5.33

----------
Target: Solute carrier family 2, facilitated glucose transporter member 1 (Homo sapiens)
Assay: ST_JUDE_LEISH: Cytotoxicity at 2uM final concentration against transgenic Leishmania Mexicana promastigotes LmGLUT1 that are glucose transport deficient and complemented with the human glucose transporter GLUT1. Activity is measured by DNA content using SYBR green in vitro
Type: functional
inhibition by entry:

CCCN1CCN(CCCNC(=O)c2cc3c(-c4ccc(Cl)cc4)nn(C)c3s2)CC1 : 18.3%
Cc1ccc(O)cc1Nc1c(C(N)=O)cnc2ccc(-c3cncs3)cc12 : -2.06%
COc1cc2c(cc1C=CC(=O)N1CCN(Cc3nc(O)c4c(C)c(C)sc4n3)CC1)OC(C)C2 (stereo unspecified) : 1.98%
CN(CCS(C)(=O)=O)Cc1ccc(-c2ccc3ncnc(Nc4ccc(OCc5cccc(F)c5)c(Cl)c4)c3c2)o1 : 2.97%
Clc1ccc2c(NCCc3ccccc3)ccnc2c1 : 4.51%
CCCC(C)Nc1nc(C)cc(N[C@@H](Cc2ccccc2)C(=O)NCCc2ccccc2)n1 (stereo partly specified) : 2.61%
COc1cc(Cc2cnc(N)nc2N)cc(OCCCC(=O)O)c1OC : 2.98%
COc1cc(Cc2cnc(N)nc2N)cc(OCCCOc2ccccc2)c1OC : 7.68%

Please report the recorded inhibition for `CCc1cn2c3c(cc(C(=O)N[C@@H](Cc4cccc(F)c4)[C@H](O)CNC4CCOCC4)cc13)N(C)S(=O)(=O)CC2` .
-0.16%

Entry O=C(NC1CCC(N2CCC(c3nc4ccccc4s3)CC2)CC1)c1cc2ccccc2[nH]1 (stereo unspecified) : reported inhibition = ?
-0.44%

I am curious: what inhibition value has been reported for `CCn1cnc2c(N3CCCCS3(=O)=O)cc(C(=O)N[C@@H](Cc3ccccc3)[C@H](O)CNC3CCOCC3)cc21` ?
3.99%

// query inhibition value for entry `COc1ccc(CN2CCCN(Cc3cccc(NC(=O)c4ccc(-c5ccccc5)cc4)c3)CC2)cc1`
-0.75%

Requested read-out: inhibition. Entry: `CCc1cc2c3c(N)nc(N)nc3ccc2n1C(CC)CC`
71.2%

So what's the measured inhibition for this one? `Fc1ccccc1C=NN=c1cc[nH]c2ccc(C(F)(F)F)cc12`
3.03%

What does the data say about its inhibition? Entry: `O=S(=O)(c1ccc(OCc2ccc(Cl)cc2)cc1)c1cc2c(cc1OCc1ccccc1)CCN(C1CCC1)CC2`
7.19%

Reported inhibition, molecule `C=CC[C@@H](C(=O)OCC)[C@@H]1[C@@H](N(CC=C)C(=O)OC(C)(C)C)CCN1C(=O)OCc1ccccc1` : ____
2.71%

Could you tell me which inhibition is on file for O=C(Nc1ccc(OC2CCN(Cc3ccccc3)C2)c(Cl)c1)c1ccc(F)cc1 (stereo unspecified) ?
-5.06%

// inhibition lookup, key: `CC(C)(C)c1ccc(NC(=O)N[C@@H]2CCN(c3ccnc4ccccc34)C2)cc1`
0.09%

For CCCCCCNC(=O)C1Cc2c([nH]c3ccccc23)C2(CCN(CCc3ccccc3)CC2)N1 (stereo unspecified) , what is its reported inhibition?
2.97%

I'd like to know its inhibition. The molecule in question is `COc1ccc2nccc([C@@H](O)CN3CCC(NCc4ccc5cccc(O)c5n4)CC3)c2n1`
5.63%

I'd like to know its inhibition. The molecule in question is `CCOCCCNc1nc2cc(OC)c(OC)cc2c2nc(-c3ccccc3)nn12`
1.59%

Give its inhibition value. Item: CC(C)N1CCN(C(CN2CCN(CCCOc3cccc4ccccc34)CC2)c2ccc(F)cc2)CC1 (stereo unspecified)
-1.68%

Item `COc1cc(Cc2cnc(N)nc2N)cc(OCCCCC#N)c1OC` has what recorded inhibition?
2.09%
